Experimental target: UniProt P43405
Assay overview: SYK Enzymatic Assay (Z-LYTE Tyr 2 peptide)
Format: biochemical
Condition info: 8 concentrations 1 μM down to 0.0003 μM
pIC50: −log10 of the molar value.
Below, each entry is listed with its recorded pIC50.

| Molecule | Experimental target | pIC50 |
| --- | --- | --- |
| CC(Oc1nc(-c2ccc(N(C)C)cc2)cc2nccnc12)C1CN(S(N)(=O)=O)CCO1 (centres unmarked) [Compound 246] | UniProt P43405 | 7.02 |
| CN(C)c1ccc(-c2cc3nccnc3c(OC[C@@H]3CN(C(=O)[C@H]4CC[C@@H](O)CC4)CCO3)n2)cc1 [Compound 75] | UniProt P43405 | 7.02 |
| CN(C)c1ccc(-c2cc3nccnc3c(OC[C@@H]3CN(C(=O)[C@@H]4CCOC4)CCO3)n2)cc1 [Compound 72] | UniProt P43405 | 6.96 |
| CNC(=O)N1CCO[C@H](COc2nc(-c3ccc(N(C)C)c(C)c3)cc3nccnc23)C1 [Compound 164] | UniProt P43405 | 7.18 |
| CC(=O)N1CCO[C@H](COc2nc(-c3ccc(NC(C)C)cc3)cc3nccnc23)C1 [Compound 141] | UniProt P43405 | 7.01 |
| CN(C)c1ccc(-c2cc3nccnc3c(OC[C@@H]3CN(C(=O)C4CC4(F)F)CCO3)n2)cc1 (some centres unmarked) [Compound 96] | UniProt P43405 | 6.87 |
| COC(C)(C)c1ccc(-c2cc3nccnc3c(OC[C@@H]3CN(C(C)=O)CCO3)n2)cc1 [Compound 269] | UniProt P43405 | 7.04 |
| CC(=O)N1CCO[C@H](COc2nc(-c3ccc(C4(C#N)CCC4)cc3)cc3nccnc23)C1 [Compound 289] | UniProt P43405 | 6.94 |
| CC(F)(F)c1ccc(-c2cc3nccnc3c(OC[C@@H]3CN(S(C)(=O)=O)CCO3)n2)cc1 [Compound 230] | UniProt P43405 | 6.82 |
| CNc1ccc(-c2cc3nccnc3c(OC[C@@H]3CN(C(C)=O)CCO3)n2)cc1 [Compound 47] | UniProt P43405 | 6.91 |
| COc1cc(-c2cc3nccnc3c(OC[C@@H]3CN(C(C)=O)CCO3)n2)ccc1OC(C)C [Compound 147] | UniProt P43405 | 6.94 |
| CN(C)c1ccc(-c2cc3nccnc3c(OC[C@@H]3CN(C(=O)Cc4cccnc4)CCO3)n2)cc1 [Compound 80] | UniProt P43405 | 6.97 |
| CC(Oc1nc(-c2ccc(N(C)C)cc2)cc2nccnc12)C1CN(S(C)(=O)=O)CCO1 (centres unmarked) [Compound 236] | UniProt P43405 | 6.96 |
| CC(=O)N1CCC(c2ccc(-c3cc4nccnc4c(OC[C@@H]4CN(C(C)=O)CCO4)n3)cc2)CC1 [Compound 54] | UniProt P43405 | 7.14 |

The reported measurements were obtained from patent US20170152258A9.
